Molecular target: Tyrosine-protein kinase ABL1 (Homo sapiens) (UniProt P00519);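 note: reported values are mean percent inhibition of ABL1 kinase activity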
Sequence (P00519 whole entry): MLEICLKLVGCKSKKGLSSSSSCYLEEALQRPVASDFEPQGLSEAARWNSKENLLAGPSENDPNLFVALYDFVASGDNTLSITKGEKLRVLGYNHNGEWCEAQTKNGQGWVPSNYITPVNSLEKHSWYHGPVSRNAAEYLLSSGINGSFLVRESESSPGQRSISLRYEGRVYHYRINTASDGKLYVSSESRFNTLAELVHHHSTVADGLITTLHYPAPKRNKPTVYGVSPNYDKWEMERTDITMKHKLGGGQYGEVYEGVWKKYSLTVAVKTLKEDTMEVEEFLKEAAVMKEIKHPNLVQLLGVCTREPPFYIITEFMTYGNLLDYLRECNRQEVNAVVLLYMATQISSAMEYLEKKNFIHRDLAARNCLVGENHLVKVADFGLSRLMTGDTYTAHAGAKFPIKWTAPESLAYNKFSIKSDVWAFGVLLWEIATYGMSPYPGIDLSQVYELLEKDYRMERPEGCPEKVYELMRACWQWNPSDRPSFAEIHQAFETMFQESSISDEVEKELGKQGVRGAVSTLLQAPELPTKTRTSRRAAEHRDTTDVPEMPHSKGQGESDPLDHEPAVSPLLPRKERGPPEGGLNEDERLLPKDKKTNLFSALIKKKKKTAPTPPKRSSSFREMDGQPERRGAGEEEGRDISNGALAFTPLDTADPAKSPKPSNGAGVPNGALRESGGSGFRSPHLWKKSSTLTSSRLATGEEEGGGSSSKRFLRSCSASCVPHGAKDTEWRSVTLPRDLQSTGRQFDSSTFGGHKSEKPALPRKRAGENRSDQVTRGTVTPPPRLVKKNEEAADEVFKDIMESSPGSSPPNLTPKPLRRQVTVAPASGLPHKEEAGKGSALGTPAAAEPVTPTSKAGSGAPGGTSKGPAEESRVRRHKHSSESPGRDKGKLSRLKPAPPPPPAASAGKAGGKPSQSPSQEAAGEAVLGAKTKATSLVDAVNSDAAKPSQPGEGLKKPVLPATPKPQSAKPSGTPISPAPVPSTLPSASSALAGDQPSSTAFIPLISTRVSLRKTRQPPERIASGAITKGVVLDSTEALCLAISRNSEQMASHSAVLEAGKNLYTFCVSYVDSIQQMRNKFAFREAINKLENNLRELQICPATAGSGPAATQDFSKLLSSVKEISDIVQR
Details: at 1 µM
property_name: inhibition (%)
// units = %; emit number, no label

# count of solved cases: 8
smiles_representation | inhibition [%]
N#Cc1c(NC(=O)c2ccccc2F)sc2c1CCCC2 | 1.47
N#Cc1cccc(Nc2nccc(-c3cnn4ncccc34)n2)c1 | 47.5
COC(=O)c1ccc2c(c1)C(=Cc1cc(Br)c(O)c(Br)c1)C(=O)N2 | 21.2
NS(=O)(=O)c1cccc(-c2cc3ccncc3cc2OCc2ccccc2)c1 | 12.2
NS(=O)(=O)c1ccc(NC=C2C(=O)Nc3ccc4ncsc4c32)cc1 | 44.8
Cc1ccc(C(=O)NC2CC2)cc1-c1ccc2[nH]ncc2c1 | 0.77
Cc1cc(-c2ccccn2)cc(C)c1/C=C/c1cncc(-c2nn[nH]n2)c1 | 13
CS(=O)(=O)CCNCc1nc(-c2ccc3ncnc(Nc4ccc(OCc5cccc(C(F)(F)F)c5)cc4)c3c2)cs1 | 6.56

Consider the compound Nc1nccc(C#Cc2cncnc2Nc2ccc(OCc3cccc(F)c3)c(Cl)c2)n1 and give its measured inhibition.
9.58

Same read-out for C[C@@H](Oc1cc(-n2cnc3ccc(OC[C@@H](O)CO)cc32)sc1C(N)=O)c1ccccc1Cl ?
11.7

Same read-out for COC(=O)Nc1nc2cc(Oc3ccc(NC(=O)Nc4cccc(Br)c4)cc3)ccc2[nH]1 ?
19

Same read-out for c1ccc(Nc2ncc(-c3ccccc3)o2)cc1 ?
16.5

Same read-out for Cc1cc(Cl)cc2c1NC(=O)C2=NNc1ccc(S(N)(=O)=O)cc1 ?
7.99

Same read-out for FC(F)(F)c1ccc(-c2nn3ncccc3c2-c2ccnc(Nc3ccc4c(c3)OCCO4)n2)cc1 ?
13.7
